Tested on: Senescent cells (SnC)
Assay: Cell survival EC50 of MDM2 inhibitors, senescent cells
Details: read-out: Cell survival data EC50 SnC
Examples of molecules with documented EC50 follow.

[
  {
    "molecule": "COc1cc(C(=O)O)ccc1NC(=O)[C@@H]1N[C@@H](CC(C)(C)C)[C@](C#N)(c2ccc(Cl)cc2F)[C@H]1c1cccc(Cl)c1F",
    "EC50 [µM]": 32.8
  },
  {
    "molecule": "O=C(/C=C/c1ccc(I)cc1)c1ccc(B(O)O)cc1 [Boronate, trans-4-Iodo, 4′-boranyl-chalcone]",
    "EC50 [µM]": 10.8
  },
  {
    "molecule": "O=C1c2c(c(-c3ccccc3)nn2Cc2ccc(F)cc2)C(c2ccc(Br)cc2)N1CCCn1ccnc1 (stereo not shown)",
    "EC50 [µM]": 11.2
  },
  {
    "molecule": "CC(C)[C@@H](CS(=O)(=O)C(C)C)N1C(=O)[C@@](C)(CC(=O)O)C[C@H](c2cccc(Cl)c2)[C@H]1c1ccc(Cl)cc1",
    "EC50 [µM]": 3.4
  }
]

The origin of these recorded values is patent US20190022225A1.
